biological target: Prostaglandin G/H synthase 1 (Mus musculus) (UniProt P22437); test: Inhibition of COX-1 in mouse J774 cells using arachidonic acid as substrate assessed as inhibition of prostaglandin E2 production at 10 uM preincubated for 15 mins followed by substrate addition measured after 30 mins by RIA; format: cell-based
Sequence (P22437 whole entry): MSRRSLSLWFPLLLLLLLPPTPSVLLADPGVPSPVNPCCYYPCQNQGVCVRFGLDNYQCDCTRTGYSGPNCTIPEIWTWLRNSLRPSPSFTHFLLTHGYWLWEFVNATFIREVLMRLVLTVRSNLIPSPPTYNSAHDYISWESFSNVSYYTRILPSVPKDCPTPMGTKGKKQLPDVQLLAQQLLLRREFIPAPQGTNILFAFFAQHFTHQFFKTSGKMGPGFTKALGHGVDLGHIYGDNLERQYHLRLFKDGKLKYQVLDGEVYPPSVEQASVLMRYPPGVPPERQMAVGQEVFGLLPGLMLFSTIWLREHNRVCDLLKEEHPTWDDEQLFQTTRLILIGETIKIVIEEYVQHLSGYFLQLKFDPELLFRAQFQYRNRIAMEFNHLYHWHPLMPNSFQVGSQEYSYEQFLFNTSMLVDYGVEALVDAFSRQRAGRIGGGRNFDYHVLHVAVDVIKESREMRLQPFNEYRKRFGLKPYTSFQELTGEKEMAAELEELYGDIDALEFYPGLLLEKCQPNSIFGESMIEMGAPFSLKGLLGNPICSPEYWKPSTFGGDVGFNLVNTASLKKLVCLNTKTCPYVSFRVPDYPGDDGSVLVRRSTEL
experimental.endpoint: inhibition (%)

// below: answered molecules
Data request, read-out inhibition, for Cc1c(CC(=O)NCCCO[N+](=O)[O-])cc(-c2ccc(S(C)(=O)=O)cc2)n1-c1cccc(F)c1
0

Data request, read-out inhibition, for Cc1c(CC(=O)NC(CO)C(=O)O)cc(-c2ccc(S(C)(=O)=O)cc2)n1-c1ccc(F)cc1 (racemic)
23

P. Cc1c(CC(=O)NCCO)cc(-c2ccc(S(C)(=O)=O)cc2)n1-c1cccc(F)c1
Q. Cc1c(CC(=O)NCCCO)cc(-c2ccc(S(C)(=O)=O)cc2)n1-c1cccc(F)c1
Which of these two has the smaller recorded inhibition: P or Q ? Please indicate the selected item by its label.
P
(P: 0%, Q: 17%)

---

target: Prostaglandin G/H synthase 2 (Mus musculus); test: Inhibition of LPS-induced COX-2 in mouse J774 cells using arachidonic acid as substrate assessed as inhibition of prostaglandin E2 production at 10 uM preincubated for 15 mins followed by substrate addition measured after 30 mins by RIA; type: cell-based
experimental.endpoint: inhibition (%)

// below: answered molecules
Data request, read-out inhibition, for Cc1c(CC(=O)NC(CO)C(=O)O)cc(-c2ccc(S(C)(=O)=O)cc2)n1-c1ccc(F)cc1 (racemic)
100

Data request, read-out inhibition, for Cc1c(CC(=O)NC(CO)C(=O)O)cc(-c2ccc(S(C)(=O)=O)cc2)n1-c1cccc(F)c1 (racemic)
100

Data request, read-out inhibition, for Cc1c(CC(=O)NCCO[N+](=O)[O-])cc(-c2ccc(S(C)(=O)=O)cc2)n1-c1cccc(F)c1
95

Data request, read-out inhibition, for Cc1c(CC(=O)NCCCO[N+](=O)[O-])cc(-c2ccc(S(C)(=O)=O)cc2)n1-c1ccc(F)cc1
100

Data request, read-out inhibition, for Cc1c(CC(=O)NCCCO)cc(-c2ccc(S(C)(=O)=O)cc2)n1-c1cccc(F)c1
100

A. Cc1c(CC(=O)NC(CCO[N+](=O)[O-])C(=O)O)cc(-c2ccc(S(C)(=O)=O)cc2)n1-c1cccc(F)c1 (racemic)
B. Cc1c(CC(=O)NC(CCO)C(=O)O)cc(-c2ccc(S(C)(=O)=O)cc2)n1-c1ccc(F)cc1 (racemic)
Which of these two has the smaller recorded inhibition: A or B ? Please indicate the selected item by its label.
A
(A: 43%, B: 89%)

---

system: Mus musculus; test: Analgesic activity in Swiss albino mouse assessed as reduction of acetic acid-induced writhing at 40 mg/kg, po measured every 10 mins after 5 mins of administration relative to control; type: functional; set-up: scale not given: the % may be the effect or the level left
experimental.endpoint: Activity (%)
Output spec: scalar in %, unitless text.

Data request, read-out Activity, for Cc1c(CC(=O)NC(CO[N+](=O)[O-])C(=O)O)cc(-c2ccc(S(C)(=O)=O)cc2)n1-c1ccc(F)cc1 (configuration not stated)
50

Data request, read-out Activity, for Cc1c(CC(=O)NC(CO[N+](=O)[O-])C(=O)O)cc(-c2ccc(S(C)(=O)=O)cc2)n1-c1cccc(F)c1 (racemic)
50

Data request, read-out Activity, for Cc1c(CC(=O)NCCO[N+](=O)[O-])cc(-c2ccc(S(C)(=O)=O)cc2)n1-c1cccc(F)c1
55

Data request, read-out Activity, for Cc1c(CC(=O)NCCCO[N+](=O)[O-])cc(-c2ccc(S(C)(=O)=O)cc2)n1-c1cccc(F)c1
30

---

test: Metabolic stability in Sprague-Dawley rat plasma assessed as compound remaining after 120 mins by LC-MS/MS analysis; assay type: ADME, cell-free; details: read-out: Stability
experimental.endpoint: remaining at 2 h (%)

// below: answered compounds
Data request, read-out remaining at 2 h, for Cc1c(C(N)C(=O)OCCO[N+](=O)[O-])cc(-c2ccc(S(C)(=O)=O)cc2)n1-c1ccc(F)cc1 (centres undefined)
0

Data request, read-out remaining at 2 h, for Cc1c(CC(=O)NC(CO[N+](=O)[O-])C(=O)O)cc(-c2ccc(S(C)(=O)=O)cc2)n1-c1cccc(F)c1 (racemic)
28.6

I. Cc1c(CC(=O)NCCO[N+](=O)[O-])cc(-c2ccc(S(C)(=O)=O)cc2)n1-c1ccc(F)cc1
II. Cc1c(CC(=O)OCCO[N+](=O)[O-])cc(-c2ccc(S(C)(=O)=O)cc2)n1-c1cccc(F)c1
Param pair: I , II . Output: the one whose remaining at 2 h is numerically greater. Please indicate the selected item by its label.
I

---

assay: Solubility of the compound in phosphate buffer saline at pH 7.4 after 90 mins by HPLC analysis; format: physicochemical
experimental.endpoint: solubility at 1.5 h (µM)
Output spec: scalar in µM, unitless text.

Data request, read-out solubility at 1.5 h, for Cc1c(CC(=O)NC(CO[N+](=O)[O-])C(=O)O)cc(-c2ccc(S(C)(=O)=O)cc2)n1-c1ccc(F)cc1 (centres undefined)
90.5

Further cases:
Data request, read-out solubility at 1.5 h, for Cc1c(C(N)C(=O)OCCO[N+](=O)[O-])cc(-c2ccc(S(C)(=O)=O)cc2)n1-c1ccc(F)cc1 (centres undefined)
80

---

assay: Stability of the compound in phosphate buffer saline assessed as compound remaining at pH 7.4 after 120 mins by LC-MS/MS analysis; type: physicochemical; conditions: read-out: Stability
experimental.endpoint: remaining at 2 h (%)

Data request, read-out remaining at 2 h, for Cc1c(CC(=O)NC(CO[N+](=O)[O-])C(=O)O)cc(-c2ccc(S(C)(=O)=O)cc2)n1-c1cccc(F)c1 (racemic)
37.5

Data request, read-out remaining at 2 h, for Cc1c(C(N)C(=O)OCCO[N+](=O)[O-])cc(-c2ccc(S(C)(=O)=O)cc2)n1-c1ccc(F)cc1 (centres undefined)
75

a. Cc1c(CC(=O)NCCO[N+](=O)[O-])cc(-c2ccc(S(C)(=O)=O)cc2)n1-c1ccc(F)cc1
b. Cc1c(CC(=O)OCCO[N+](=O)[O-])cc(-c2ccc(S(C)(=O)=O)cc2)n1-c1cccc(F)c1
Which of these two has the smaller recorded remaining at 2 h: a or b ? Please indicate the selected item by its label.
b
(b: 0.15%, a: 100%)

---

test system: Thoracic aorta; test: Ex vivo vasorelaxant activity in Wistar rat endothelium thoracic aortic ring assessed as reduction of KCl-induced contraction at 0.001 uM to 10 uM relative to control; type: functional
experimental.endpoint: Emax (%)
Output spec: scalar in %, unitless text.

// below: answered compounds
Recall the recorded Emax for Cc1c(CC(=O)NC(CCO[N+](=O)[O-])C(=O)O)cc(-c2ccc(S(C)(=O)=O)cc2)n1-c1cccc(F)c1 (racemic) with Thoracic aorta and state it.
25

Recall the recorded Emax for Cc1c(CC(=O)NCCCO[N+](=O)[O-])cc(-c2ccc(S(C)(=O)=O)cc2)n1-c1cccc(F)c1 with Thoracic aorta and state it.
69

Recall the recorded Emax for COc1ccc2cc([C@H](C)C(=O)OCCCCO[N+](=O)[O-])ccc2c1 with Thoracic aorta and state it.
68

Recall the recorded Emax for Cc1c(CC(=O)NC(CO[N+](=O)[O-])C(=O)O)cc(-c2ccc(S(C)(=O)=O)cc2)n1-c1cccc(F)c1 (racemic) with Thoracic aorta and state it.
18

Further cases:
Recall the recorded Emax for Cc1c(CC(=O)NC(CO[N+](=O)[O-])C(=O)O)cc(-c2ccc(S(C)(=O)=O)cc2)n1-c1ccc(F)cc1 (stereo unspecified) with Thoracic aorta and state it.
25

Recall the recorded Emax for Cc1c(CC(=O)NCCO[N+](=O)[O-])cc(-c2ccc(S(C)(=O)=O)cc2)n1-c1cccc(F)c1 with Thoracic aorta and state it.
49

---

experiment: Solubility of the compound in simulated gastric fluid at pH 1.5 after 90 mins by HPLC analysis; format: ADME
experimental.endpoint: solubility at 1.5 h (µM)

Data request, read-out solubility at 1.5 h, for Cc1c(CC(=O)NCCO[N+](=O)[O-])cc(-c2ccc(S(C)(=O)=O)cc2)n1-c1cccc(F)c1
150

Data request, read-out solubility at 1.5 h, for Cc1c(CC(=O)NCCO[N+](=O)[O-])cc(-c2ccc(S(C)(=O)=O)cc2)n1-c1ccc(F)cc1
147

Data request, read-out solubility at 1.5 h, for Cc1c(CC(=O)NC(CO[N+](=O)[O-])C(=O)O)cc(-c2ccc(S(C)(=O)=O)cc2)n1-c1ccc(F)cc1 (stereo not given)
112

---

assay: Stability of the compound in simulated gastric fluid assessed as compound remaining at pH 1.5 after 30 mins by LC-MS/MS analysis; format: physicochemical; conditions: read-out: Stability
experimental.endpoint: remaining at 0.5 h (%)

Data request, read-out remaining at 0.5 h, for Cc1c(CC(=O)NC(CO[N+](=O)[O-])C(=O)O)cc(-c2ccc(S(C)(=O)=O)cc2)n1-c1cccc(F)c1 (racemic)
100

Data request, read-out remaining at 0.5 h, for Cc1c(C(N)C(=O)OCCO[N+](=O)[O-])cc(-c2ccc(S(C)(=O)=O)cc2)n1-c1ccc(F)cc1 (centres undefined)
100

Data request, read-out remaining at 0.5 h, for Cc1c(CC(=O)OCCO[N+](=O)[O-])cc(-c2ccc(S(C)(=O)=O)cc2)n1-c1cccc(F)c1
80.2

Data request, read-out remaining at 0.5 h, for Cc1c(CC(=O)NCCO[N+](=O)[O-])cc(-c2ccc(S(C)(=O)=O)cc2)n1-c1ccc(F)cc1
100

Taken from ChEMBL document CHEMBL3102735.
